SYSTEM_UNDER_TEST: Squalene synthase (Rattus norvegicus)
Sequence (whole entry): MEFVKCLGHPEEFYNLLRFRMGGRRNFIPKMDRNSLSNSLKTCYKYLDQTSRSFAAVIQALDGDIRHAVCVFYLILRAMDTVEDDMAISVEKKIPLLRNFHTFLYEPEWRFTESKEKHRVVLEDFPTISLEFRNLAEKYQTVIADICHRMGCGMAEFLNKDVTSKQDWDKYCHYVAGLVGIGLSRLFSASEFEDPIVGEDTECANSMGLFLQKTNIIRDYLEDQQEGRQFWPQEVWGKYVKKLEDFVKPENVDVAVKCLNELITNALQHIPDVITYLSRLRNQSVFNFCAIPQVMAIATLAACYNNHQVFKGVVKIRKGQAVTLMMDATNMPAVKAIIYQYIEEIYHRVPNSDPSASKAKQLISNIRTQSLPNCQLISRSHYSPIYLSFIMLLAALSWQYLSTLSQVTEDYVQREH
ASSAY_METHOD_TEXT: Inhibitory activity against squalene synthase in rat liver squalene synthase (RLSS) enzyme assay
VALUE_TYPE: Activity (nM)
Write the value in nM as a bare number.

// known answers, use as guide
CC[C@H](C)C[C@H](C)/C=C/C(=O)O[C@H](CC(=O)OCCC[C@@H](OC(C)=O)[C@H](C)Cc1ccccc1)C(=O)O[C@H](CC(=O)O)C(=O)O | 470
C=C(CCC12OC(C(=O)O)C(O)(C(=O)O)C(C(=O)O)(O1)[C@H](OC(=O)/C=C/[C@@H](C)C[C@@H](C)CC)[C@H]2O)[C@@H](OC(C)=O)[C@H](C)Cc1ccccc1 (some centres not stated) | 0.35
CC(=O)O[C@H](CCCOC(=O)C[C@@H](OC(=O)CCCCCCCCCCOc1ccccc1)C(=O)OC(C(=O)O)C(=O)O)[C@H](C)Cc1ccccc1 | 200
CC(=O)O[C@H](CCOC(=O)C[C@@H](OC(=O)CCCCCCCCCCOc1ccccc1)C(=O)O[C@H](CC(=O)O)C(=O)O)[C@H](C)Cc1ccccc1 | 200

Shifting focus to the molecule that follows.
Any idea what Activity was measured for `CC[C@H](C)C[C@H](C)/C=C/C(=O)O[C@H](CC(=O)OCCC[C@@H](OC(=O)C(F)(F)F)[C@H](C)Cc1ccccc1)C(=O)O[C@@H](C(=O)O)[C@@H](O)C(=O)O` ?
300
